Values compiled from ChEMBL document CHEMBL3526041.

Tested on: Plasma
EXPERIMENTAL DETAILS: Drug recovery in healthy human plasma treated with [14C]mirabegron at 160 mg, po as single dose measured at 4 hrs
Assay type: ADME, organism-based
Parameters: dosed compound name [14C]Mirabegron
COND: in vivo
Below, each entry is listed alongside its reported Compound recovery.
Reply with just the number (in %).

Use the examples below as a reference point.
>>> reported("Cl.Nc1ccc(CCNC[C@H](O)c2ccccc2)cc1")
4.3
>>> reported("Nc1nc(CC(=O)Nc2ccc(CCN(C[C@H](O)c3ccccc3)O[C@@H]3O[C@H](C(=O)O)[C@@H](O)[C@H](O)[C@H]3O)cc2)cs1")
5.9

query: Fill in the blank: the reported Compound recovery of Nc1nc(CC(=O)Nc2ccc(CC(=O)O)cc2)cs1.O=C(O)C(F)(F)F is ____.
result: 1.4

query: Would you kindly repeat that for CC(=O)Nc1ccc(CCNC[C@H](O)c2ccccc2)cc1.Cl ?
result: 4.9

* * *

EXPERIMENTAL DETAILS: Absolute oral bioavailability in dog at 0.25 mg/kg
Assay type: ADME, organism-based, Canis lupus familiaris
Parameters: dosed compound name [14C]Mirabegron
COND: in vivo
REPORTED PROPERTY: bioavailability (%)
Reply with just the number (in %).

query: Fill in the blank: the reported bioavailability of Nc1nc(CC(=O)Nc2ccc(CCNC[C@H](O)c3ccccc3)cc2)cs1 is ____.
result: 41.8

* * *

Tested on: Plasma
EXPERIMENTAL DETAILS: Drug recovery in healthy human plasma treated with [14C]mirabegron at 160 mg, po as single dose measured at 12 hrs
Type: ADME, organism-based
Parameters: dosed compound name [14C]Mirabegron
COND: in vivo
REPORTED PROPERTY: Compound recovery

Use the examples below as a reference point.
>>> reported("Nc1nc(CC(=O)Nc2ccc(CCN(C[C@H](O)c3ccccc3)O[C@@H]3O[C@H](C(=O)O)[C@@H](O)[C@H](O)[C@H]3O)cc2)cs1")
"Below limit of detection"
>>> reported("Cl.Nc1ccc(CCNC[C@H](O)c2ccccc2)cc1")
"7.6%"
>>> reported("CC(=O)Nc1ccc(CCNC[C@H](O)c2ccccc2)cc1.Cl")
"13%"
>>> reported("Nc1ccc(CCNCC(O)c2ccccc2)cc1O[C@@H]1O[C@H](C(=O)O)[C@@H](O)[C@H](O)[C@H]1O (stereo partly specified)")
"Below limit of detection"
>>> reported("CC(=O)Nc1ccc(CC(=O)O)cc1 [ACTARIT]")
"Below limit of detection"

query: Fill in the blank: the reported Compound recovery of Nc1nc(CC(=O)Nc2ccc(CC(=O)O)cc2)cs1.O=C(O)C(F)(F)F is ____.
result: Below limit of detection

* * *

EXPERIMENTAL DETAILS: Terminal elimination phase half life in healthy human urine at 160 mg, po as single dose
Type: ADME, organism-based
Parameters: dosed compound name [14C]Mirabegron
COND: read-out: beta t1/2 (converted)
REPORTED PROPERTY: half-life (h)
Reply with just the number (in h).

query: Fill in the blank: the reported half-life of Nc1nc(CC(=O)Nc2ccc(CCNC[C@H](O)c3ccccc3)cc2)cs1 [MIRABEGRON] is ____.
result: 72.9

* * *

EXPERIMENTAL DETAILS: Renal clearance in healthy human plasma at 160 mg, po as single dose
Type: ADME, organism-based, Kidney
Parameters: dosed compound name [14C]Mirabegron
REPORTED PROPERTY: CL renal (mL/min)
Reply with just the number (in mL/min).

query: Fill in the blank: the reported CL renal of Nc1nc(CC(=O)Nc2ccc(CCNC[C@H](O)c3ccccc3)cc2)cs1 is ____.
result: 295
